Molecular target: cyclin D1/cdk 4 enzyme (Homo sapiens)
Construct: made in house; host or cells: Sf9 insect cells, recombinant baculovirus
Sequence (P11802 whole entry, species assumed): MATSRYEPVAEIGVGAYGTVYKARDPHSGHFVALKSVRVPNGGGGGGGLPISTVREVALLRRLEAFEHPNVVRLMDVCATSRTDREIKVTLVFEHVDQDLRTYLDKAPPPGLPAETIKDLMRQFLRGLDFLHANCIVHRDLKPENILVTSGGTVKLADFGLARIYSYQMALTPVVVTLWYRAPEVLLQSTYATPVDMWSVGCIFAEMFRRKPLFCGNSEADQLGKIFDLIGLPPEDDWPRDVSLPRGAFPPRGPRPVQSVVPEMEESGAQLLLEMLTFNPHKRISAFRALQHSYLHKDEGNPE
Sequence (P24385 whole entry partner, species assumed): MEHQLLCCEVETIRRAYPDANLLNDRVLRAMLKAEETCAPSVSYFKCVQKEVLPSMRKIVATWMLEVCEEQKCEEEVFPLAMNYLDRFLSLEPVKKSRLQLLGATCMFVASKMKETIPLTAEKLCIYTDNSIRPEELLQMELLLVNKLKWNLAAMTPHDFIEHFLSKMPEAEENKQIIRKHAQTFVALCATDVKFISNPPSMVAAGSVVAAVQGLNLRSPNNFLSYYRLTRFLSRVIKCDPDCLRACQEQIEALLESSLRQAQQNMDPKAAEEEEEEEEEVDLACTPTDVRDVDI
Experiment: CDK4 ELISA kinase assay (phospho-Rb ser 795 detection)
Assay type: biochemical
Details: In Vitro Enzyme Assays, 200 μM ATP, read-out: CDK4 IC50
parameter: IC50 (nM)
Answer in nM, number only, no unit symbol.

Example entries and their recorded answers appear below.
| molecule | IC50 / nM |
| --- | --- |
| COc1ccc(CN/C=C2\C(=O)NC(=O)c3ccc(-n4cccc4)cc32)cc1O [Example 71] | 4 |
| CN(C)c1ccc(CN/C=C2\C(=O)NC(=O)c3ccc(I)cc32)cc1O [Example 347] | 5 |
| O=C1NC(=O)c2ccc(Br)cc2/C1=C/NCc1ccc(OCCN2CCCC2)c(O)c1 [Example 143] | 60 |
| CN(C)CCCN/C=C1\C(=O)NC(=O)c2ccc(Br)cc21 [Example 306] | 6700 |
| CN1CCC(c2ccc(N/C=C3\C(=O)NC(=O)c4ccc(-c5ccsc5)cc43)cc2)CC1 [Example 327] | 60 |
| O=C1NC(=O)c2ccc(-c3ccoc3)cc2C1=NNc1ccc(CN2CCCCC2)cc1 [Example 156] | 40 |
| CCCOc1ccc(CN/C=C2\C(=O)NC(=O)c3ccc(-c4ccc(F)c(F)c4)cc32)cc1O [Example 194] | 15800 |

// moving on: another record for IC50
Incoming: Request body: readout IC50, system cyclin D1/cdk 4 enzyme (Homo sapiens), query CCCN1CCN(c2ccc(N/C=C3\C(=O)NC(=O)c4ccc(I)cc43)cc2)CC1 [Example 388] . Return the value.
Outgoing: 2000

----------
Biological target: cyclin B/CDK1 enzyme (Homo sapiens, UniProt P06493)
Construct: purchased New England BioLabs; host or cells: Sf9 insect cells, recombinant baculovirus
Sequence (P06493 whole entry): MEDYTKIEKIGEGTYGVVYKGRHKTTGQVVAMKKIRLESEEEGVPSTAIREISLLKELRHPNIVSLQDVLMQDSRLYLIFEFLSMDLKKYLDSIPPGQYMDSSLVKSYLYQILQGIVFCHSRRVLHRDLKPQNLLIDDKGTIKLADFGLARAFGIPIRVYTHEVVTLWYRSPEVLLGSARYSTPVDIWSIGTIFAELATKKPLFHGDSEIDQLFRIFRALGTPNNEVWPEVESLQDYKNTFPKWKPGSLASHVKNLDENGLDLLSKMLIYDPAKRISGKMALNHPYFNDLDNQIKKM
Sequence (P14635 whole entry partner): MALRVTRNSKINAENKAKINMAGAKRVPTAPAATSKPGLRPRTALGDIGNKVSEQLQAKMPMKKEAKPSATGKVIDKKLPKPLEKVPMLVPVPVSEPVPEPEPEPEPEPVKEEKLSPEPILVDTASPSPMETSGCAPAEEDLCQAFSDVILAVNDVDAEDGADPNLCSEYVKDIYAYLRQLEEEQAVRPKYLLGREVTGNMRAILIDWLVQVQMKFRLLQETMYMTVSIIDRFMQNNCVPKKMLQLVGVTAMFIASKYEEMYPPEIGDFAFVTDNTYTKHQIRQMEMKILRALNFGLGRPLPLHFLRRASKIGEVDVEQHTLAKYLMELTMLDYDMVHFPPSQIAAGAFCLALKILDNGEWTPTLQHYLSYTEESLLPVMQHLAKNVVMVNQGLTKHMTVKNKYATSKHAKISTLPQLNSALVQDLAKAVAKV
Experiment: CDK1 ELISA kinase assay (phospho-Rb ser 795 detection)
Type: biochemical
Settings: In Vitro Enzyme Assay, cyclin B/CDK1, read-out: CDK1 IC50
parameter: IC50 (µM)
Answer in µM, number only, no unit symbol.

Incoming: Any idea what its IC50 is? The compound is O=C1NC(=O)c2ccc(N3Cc4ccccc4C3)cc2C1=CNCc1ccc(O)c(O)c1
Outgoing: 3.5

----------
Assay: I.V. and P.O. Dosing in Mice
Type: in vivo
Details: mouse, in vivo, po, 50 mg/kg, dose po 50 mg/kg, read-out: aucinf obs (po)
Property: AUC(0-inf); scope: individual compounds
Answer in ng·h/mL, number only, no unit symbol.

| smiles.structure | observed.measurement |
| --- | --- |
| O=C1NC(=O)c2ccc(I)cc2/C1=C/NCc1ccc(-c2ccoc2)c(O)c1 | 5590 |
| CCCOc1cnc(CN/C=C2\C(=O)NC(=O)c3ccc(C4CCCC4)cc32)cc1O | 1040 |
| CN1CCN(c2ccc(N/C=C3\C(=O)NC(=O)c4ccc(-c5ccsc5)cc43)cc2)CC1 | 4100 |
| O=C1NC(=O)c2ccc(I)cc2/C1=C/NCc1ccn(-c2ccsc2)c(=O)c1 | 44 |
| CCCOc1cnc(CNC=C2C(=O)NC(=O)c3ccc(I)cc32)cc1O | 17200 |
| O=C1NC(=O)c2ccc(I)cc2/C1=C/NCc1ccn(-c2ccccc2)c(=O)c1 | 39 |

Incoming: Any idea what its AUC(0-inf) is? The compound is O=C1NC(=O)c2ccc(I)cc2/C1=C/NCc1cc(O)c(-c2ccoc2)cn1
Outgoing: 1400

Incoming: Any idea what its AUC(0-inf) is? The compound is O=C1NC(=O)c2ccc(I)cc2/C1=C/NCc1ccn(-c2ccoc2)c(=O)c1
Outgoing: 12000

----------
Property: pIC50; scope: individual molecules
Molecular target: cyclin D1/cdk 4 enzyme (Homo sapiens)
Construct: made in house; host or cells: Sf9 insect cells, recombinant baculovirus
Test: CDK4 ELISA kinase assay (phospho-Rb ser 795 detection)
Format: biochemical
Conditions: In Vitro Enzyme Assays, 200 μM ATP, read-out: CDK4 IC50
// field semantics: pIC50 = negative decimal log of concentration (mol/L)

| molecule | observed.measurement |
| --- | --- |
| O=C1NC(=O)c2ccc(I)cc2/C1=C/Nc1ccc(CN2CCC[C@H]2CO)cc1 [Example 376] | 6.37 |
| COc1ccc(C#Cc2ccc3c(c2)/C(=C/Nc2ccc(N4CCN(C)CC4)cc2)C(=O)NC3=O)cc1 [Example 172] | 4.63 |
| Nc1cccc(CN/C=C2\C(=O)NC(=O)c3ccc(Br)cc32)c1 [Example 52] | 4.61 |

Incoming: Any idea what its pIC50 is? The molecule is O=C1NC(=O)c2ccc(-c3ccc(O)cc3)cc2/C1=C/Nc1ccc(CN2CCCCC2)cc1 [Example 103]
Outgoing: 7.39

Incoming: Any idea what its pIC50 is? The molecule is O=C1NC(=O)c2ccc(Br)cc2/C1=C/NCc1cc[nH]c(=O)c1 [Example 225]
Outgoing: 6.25

Incoming: Any idea what its pIC50 is? The molecule is COc1ccc(N/C=C2\C(=O)NC(=O)c3ccccc32)cc1 [Example 1]
Outgoing: 4.42

Incoming: Any idea what its pIC50 is? The molecule is COc1ccc(CN/C=C2\C(=O)NC(=O)c3ccc(Cl)cc32)cc1O [Example 67]
Outgoing: 6.64

Incoming: Any idea what its pIC50 is? The molecule is CC1CN(c2ccc(N/C=C3\C(=O)NC(=O)c4ccc(Br)cc43)cc2)CC(C)N1 (centres unmarked) [Example 201]
Outgoing: 5.39

----------
parameter: melting point

| compound | observed.measurement |
| --- | --- |
| COCC1CCCN1Cc1ccc(N/C=C2\C(=O)NC(=O)c3ccc(Br)cc32)cc1 (stereo in doubt) [Example 39] | 129 to 130 °C |
| O=C1NC(=O)c2ccc(-c3cccnc3)cc2/C1=C/Nc1ccc(CN2CCCCC2)cc1 [Example 102] | 247 to 248 °C |
| COc1cc(CN/C=C2\C(=O)NC(=O)c3ccc(Br)cc32)ccc1O [Example 28] | 260 to 261 °C |

// moving on: another record for melting point
Incoming: Any idea what its melting point is? The compound is NS(=O)(=O)c1ccc(CN/C=C2\C(=O)NC(=O)c3ccc(Br)cc32)cc1 [Example 56]
Outgoing: 273 to 274 °C

----------
Property: IC50; scope: individual compounds
Molecular target: cyclin B/CDK1 enzyme (Homo sapiens)
Construct: purchased New England BioLabs; host or cells: Sf9 insect cells, recombinant baculovirus
Assay: CDK1 ELISA kinase assay (phospho-Rb ser 795 detection)
Assay type: biochemical
Settings: In Vitro Enzyme Assay, cyclin B/CDK1, read-out: CDK1 IC50
Answer in µM, number only, no unit symbol.

Example entries and their recorded answers appear below.
| compound | IC50, µM |
| --- | --- |
| O=C1NC(=O)c2ccc(-c3ccc(F)cc3)cc2C1=CNCc1ccc(O)c(O)c1 | 15.4 |
| O=C(O)CCc1ccc(-c2ccc3c(c2)C(=CNCc2ccc(O)c(O)c2)C(=O)NC3=O)cc1 | 27.1 |
| CCN(CC)Cc1ccc(NC=C2C(=O)NC(=O)c3ccccc32)cc1 | 18.5 |
| O=C1NC(=O)c2ccc(-c3ccc(C(=O)O)cc3)cc2C1=CNCc1ccc(O)c(O)c1 | 18.5 |
| CN1CCN(c2ccc(N/C=C3\C(=O)NC(=O)c4ccc(-c5ccoc5)cc43)nn2)CC1 | 24.7 |

Incoming: Any idea what its IC50 is? The compound is O=C1NC(=O)c2ccccc2C1=CNCc1ccc(NS(=O)(=O)CC(F)(F)F)cc1
Outgoing: 20.3

Incoming: Any idea what its IC50 is? The compound is O=C1NC(=O)c2ccccc2C1=CNc1ccc(O)c(C(=O)O)c1
Outgoing: 18.5

Incoming: Any idea what its IC50 is? The compound is CN(C)Cc1cccc(-c2ccc(CN/C=C3\C(=O)NC(=O)c4ccc(I)cc43)cc2O)c1
Outgoing: 17.3

Incoming: Any idea what its IC50 is? The compound is CC(=O)Nc1cccc(-c2ccc3c(c2)C(=CNCc2ccc(O)c(O)c2)C(=O)NC3=O)c1
Outgoing: 46.5

Incoming: Any idea what its IC50 is? The compound is NS(=O)(=O)c1ccc(CNC=C2C(=O)NC(=O)c3ccc(-c4ccc[nH]4)cc32)cc1
Outgoing: 17.3

Incoming: Any idea what its IC50 is? The compound is N#CCc1ccc(NC=C2C(=O)NC(=O)c3ccc(-c4ccc[nH]4)cc32)cc1
Outgoing: 31

Incoming: Any idea what its IC50 is? The compound is CN1CCN(c2cnc(N/C=C3\C(=O)NC(=O)c4ccc(I)cc43)cn2)CC1
Outgoing: 3

Incoming: Any idea what its IC50 is? The compound is O=C1NC(=O)c2ccc(I)cc2/C1=C/NCc1ccc(-c2ccccc2)c(O)c1
Outgoing: 47.8

Incoming: Any idea what its IC50 is? The compound is O=C1NC(=O)c2ccccc2C1=CNCC(O)c1ccc(O)c(O)c1 (stereo not drawn)
Outgoing: 16.9
